The reported measurements were obtained from patent US11198695B2.

Catalogue of pIC50 readings, one per entry.
Biological target: recombinant human MGAT2 (Homo sapiens (Human), UniProt Q3SYC2)
Sequence (Q3SYC2 whole entry): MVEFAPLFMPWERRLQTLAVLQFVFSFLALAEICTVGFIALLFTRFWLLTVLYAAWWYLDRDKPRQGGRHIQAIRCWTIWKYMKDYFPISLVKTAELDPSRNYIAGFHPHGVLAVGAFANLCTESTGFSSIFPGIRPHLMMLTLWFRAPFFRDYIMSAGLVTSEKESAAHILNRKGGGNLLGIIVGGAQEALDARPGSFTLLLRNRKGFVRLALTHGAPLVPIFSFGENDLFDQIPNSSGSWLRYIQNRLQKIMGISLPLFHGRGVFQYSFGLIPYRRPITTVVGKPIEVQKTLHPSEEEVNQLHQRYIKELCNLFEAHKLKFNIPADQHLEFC
Assay: Measurement of human MGAT2 inhibitory activity
Assay type: biochemical
Settings: read-out: IC50 (concentration exhibiting 50% enzyme inhibition), Table 52
From the text: A full-length human MGAT2 gene to which a Flag-tag had been added at the N-terminal was inserted into pFastBac (from Invitrogen). A recombinant baculovirus was produced in accordance with the protocol for a Bac-to-Bac baculovirus expression system (produced by Invitrogen), and Sf-9 cells were infected therewith. The cells were collected and sonicated, and then the membrane fraction was collected through centrifugation. […]
Remember the convention: pIC50 equals -log10 of concentration in molar.

• O=C1N[C@@]2(CCc3cc(OCC(F)(F)F)ccc32)Cc2nn(CCC3CC3)c(C(=O)NS(=O)(=O)c3ccccc3)c21 [Compound I-111] = 6.72
• Cc1ccc(-n2nc3c(c2NC(=O)CS(C)(=O)=O)C(=O)N[C@@]2(CCOc4cc(OCC(F)(F)F)ccc42)C3)cc1 [Compound I-274] = 8.41

--- query ---
Notebook: CS(=O)(=O)CC(=O)Nc1c2c(nn1-c1ccc(C#N)cc1)C[C@]1(CCc3cc(F)cc(F)c31)NC2=O [Compound I-164] , pIC50 read as 7.07

###

Catalogue of pIC50 readings, one per entry.
Molecular target: recombinant human MGAT2 (Homo sapiens (Human), UniProt Q3SYC2)
Experiment: Measurement of human MGAT2 inhibitory activity
Type: biochemical
Settings: read-out: IC50 (concentration exhibiting 50% enzyme inhibition), Table 52
Remember the convention: pIC50 equals -log10 of concentration in molar.

* O=C1N[C@@]2(CCc3cc(OCC(F)(F)F)ccc32)Cc2nn(CCC3CC3)c(C(=O)NS(=O)(=O)CC3CC3)c21 | 6.59
* CS(=O)(=O)CC(=O)Nc1c2c(nn1-c1ccc(C#N)cn1)C[C@]1(CCc3cc(N4CC(C(F)(F)F)C4)ccc31)NC2=O | 8.23
* CS(=O)(=O)CC(=O)Nc1c2c(nn1-c1ccc(C#N)cn1)C[C@]1(CCc3cc(OCC(F)(F)F)cc(F)c31)NC2=O | 8.72
* CS(=O)(=O)CC(=O)Nc1c2c(nn1-c1cccc(C(F)(F)F)c1)C[C@]1(CCc3cc(OCC(F)(F)F)ccc31)NC2=O | 6.28
* Cc1cnc(-n2nc3c(c2NC(=O)CS(C)(=O)=O)C(=O)N[C@@]2(CCc4cc(OCC(F)(F)F)ccc42)C3)cn1 | 7.07

--- query ---
Notebook: `O=C(Nc1c2c(nn1CCC1CC1)C[C@]1(CCc3cc(OCC(F)(F)F)ccc31)NC2=O)c1cscn1` , pIC50 read as 7.06

###

Molecular target: CYP2C9 (Homo sapiens (Human), UniProt P11712)
Sequence (P11712 whole entry): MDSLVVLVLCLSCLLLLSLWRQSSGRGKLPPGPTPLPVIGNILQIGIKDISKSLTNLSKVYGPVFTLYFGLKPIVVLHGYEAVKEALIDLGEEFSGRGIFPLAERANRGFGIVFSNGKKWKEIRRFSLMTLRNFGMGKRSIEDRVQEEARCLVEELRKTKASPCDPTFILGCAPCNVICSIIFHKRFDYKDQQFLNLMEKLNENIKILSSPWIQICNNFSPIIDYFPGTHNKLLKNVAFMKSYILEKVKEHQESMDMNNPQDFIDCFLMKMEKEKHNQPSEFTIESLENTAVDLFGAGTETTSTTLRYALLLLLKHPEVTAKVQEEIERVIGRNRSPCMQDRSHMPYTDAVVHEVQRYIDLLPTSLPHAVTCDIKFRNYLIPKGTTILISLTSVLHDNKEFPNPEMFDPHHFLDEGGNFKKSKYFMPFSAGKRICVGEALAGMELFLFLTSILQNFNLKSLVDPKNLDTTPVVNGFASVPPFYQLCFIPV
pIC50: −log10 of the molar value.
reportedMetric: pIC50

Notebook: `Cc1ccc(-n2nc3c(c2NC(=O)CS(C)(=O)=O)C(=O)N[C@@]2(CCc4cc(OCCCC(F)(F)F)ccc42)C3)nn1` , pIC50 read as < 4.70

###

Biological target: recombinant human MGAT2 (Homo sapiens (Human))
Experiment: Measurement of human MGAT2 inhibitory activity
Assay type: biochemical
Conditions: read-out: IC50 (concentration exhibiting 50% enzyme inhibition), Table 52
reportedMetric: log10(IC50) (log10 of the value in nM)
All values: base-10 log of IC50 in nM.

Below are worked cases with known answers.
• CS(=O)(=O)CC(=O)Nc1c2c(nn1-c1ccccn1)C[C@@]1(CCc3cc(OCC(F)(F)F)ccc31)NC2=O = 1.08
• O=C1N[C@@]2(CCc3cc(OCC(F)(F)F)ccc32)Cc2nn(CCC3CC3)c(C(=O)NS(=O)(=O)C(F)F)c21 = 0.79

Notebook: `CS(=O)(=O)CC(=O)Nc1c2c(nn1-c1ccccn1)C[C@](c1ccc(OCC(F)(F)F)cc1)(C(F)(F)F)NC2=O` , log10(IC50) read as 2.51

Notebook: O=C1N[C@@]2(CCc3cc(OCC(F)(F)F)ccc32)Cc2nn(CCC3CC3)c(C(=O)NC3CCOC3)c21 (stereo partly drawn) , log10(IC50) read as 2.98

Notebook: CC1(C)CCC(Cn2nc3c(c2NC(=O)CS(C)(=O)=O)C(=O)N[C@@]2(CCc4cc(OCC(F)(F)F)ccc42)C3)O1 (stereo partly drawn) , log10(IC50) read as 1.77

Notebook: `O=C1N[C@@]2(CCOc3cc(OCCCC(F)(F)F)ccc32)Cc2nn(CCC3CC3)c(-c3nn[nH]n3)c21` , log10(IC50) read as 0.75

Notebook: `O=C1N[C@@]2(CCc3cc(OCC(F)(F)F)ccc32)Cc2nn(CCC3CC3)c(C(=O)NS(=O)(=O)C3CCCC3)c21` , log10(IC50) read as 2.91

Notebook: `CNS(=O)(=O)Nc1c2c(nn1CCC1CC1)C[C@]1(CCc3cc(OCCCC(F)(F)F)ccc31)NC2=O` , log10(IC50) read as 1.95

Notebook: `CS(=O)(=O)CC(=O)Nc1c2c(nn1-c1ccccn1)C[C@@]1(CCc3cc(OCC(F)(F)F)cc(F)c31)NC2=O` , log10(IC50) read as 0.99

Notebook: `CS(=O)(=O)CC(=O)Nc1c2c(nn1CCC1CC1)C[C@]1(CCc3cc(NCC(F)(F)F)ccc31)NC2=O` , log10(IC50) read as 1.40

Notebook: `CS(=O)(=O)CC(=O)Nc1c2c(nn1CCC1CCCCC1)C[C@]1(CCc3cc(OCCCC(F)(F)F)ccc31)NC2=O` , log10(IC50) read as 1.00

Notebook: `CS(=O)(=O)CC(=O)Nc1c2c(nn1-c1cnccn1)C[C@@]1(CCc3cc(OCC(F)(F)F)ccc31)NC2=O` , log10(IC50) read as 2.89

Notebook: `Cc1cccc(-n2nc3c(c2NC(=O)CS(C)(=O)=O)C(=O)N[C@@]2(CCc4cc(OCC(F)(F)F)ccc42)C3)c1` , log10(IC50) read as 0.93

Notebook: `O=C1N[C@@]2(CCc3cc(OCC(F)(F)F)ccc32)Cc2nn(CCC3CC3)c(C(=O)NS(=O)(=O)C3CCC3)c21` , log10(IC50) read as 1.67

Notebook: `O=C(CC(F)(F)F)Nc1c2c(nn1CCC1CC1)C[C@]1(CCc3cc(OCCCC(F)(F)F)ccc31)NC2=O` , log10(IC50) read as 1.18

Notebook: `O=C1N[C@@]2(CCc3cc(OCC(F)(F)F)ccc32)Cc2nn(CCC3CC3)c(-c3nn[nH]n3)c21` , log10(IC50) read as 1.68

Notebook: `CS(=O)(=O)CC(=O)Nc1c2c(nn1CCc1ccccc1)C[C@]1(CCc3cc(OCC(F)(F)F)ccc31)NC2=O` , log10(IC50) read as 1.45

Notebook: `O=C(Nc1c2c(nn1CCC1CC1)C[C@]1(CCc3cc(OCC(F)(F)F)ccc31)NC2=O)c1csnn1` , log10(IC50) read as 2.04

Notebook: `CS(=O)(=O)CC(=O)Nc1c2c(nn1CCC1CC1)C[C@]1(CCc3cc(OCC(F)(F)F)cc(F)c31)NC2=O` , log10(IC50) read as 0.57

Notebook: `CS(=O)(=O)CC(=O)Nc1c2c(nn1CCC1CC1)C[C@]1(CCc3cc(N4CC(F)(F)C4)cc(F)c31)NC2=O` , log10(IC50) read as 0.79

Notebook: `O=C(CC(F)F)Nc1c2c(nn1CCC1CC1)C[C@]1(CCc3cc(OCCCC(F)(F)F)ccc31)NC2=O` , log10(IC50) read as 1.32

Notebook: `CS(=O)(=O)CC(=O)Nc1c2c(nn1-c1ccc3c(c1)CCC3)C[C@]1(CCc3cc(OCC(F)(F)F)ccc31)NC2=O` , log10(IC50) read as 1.38

Notebook: `N#CCC(=O)Nc1c2c(nn1CCC1CC1)C[C@]1(CCc3cc(OCCCC(F)(F)F)ccc31)NC2=O` , log10(IC50) read as 1.69

Notebook: `CCCn1nc2c(c1NC(=O)CS(C)(=O)=O)C(=O)N[C@@]1(CCc3cc(OCCCC(F)(F)F)ccc31)C2` , log10(IC50) read as 1.68

Notebook: `O=C1N[C@@]2(CCc3cc(OCC(F)(F)F)ccc32)Cc2nn(CCC3CC3)c(CNS(=O)(=O)CCO)c21` , log10(IC50) read as 2.60

Notebook: `CS(=O)(=O)CC(=O)Nc1c2c(nn1Cc1ccon1)C[C@]1(CCc3cc(OCC(F)(F)F)ccc31)NC2=O` , log10(IC50) read as 2.69

Notebook: `CCCCn1nc2c(c1NC(=O)CS(C)(=O)=O)C(=O)N[C@@]1(CCc3cc(OCCCC(F)(F)F)ccc31)C2` , log10(IC50) read as 1.20

###

Biological target: recombinant human MGAT2 (Homo sapiens (Human))
Assay: Measurement of human MGAT2 inhibitory activity
Type: biochemical
Conditions: read-out: IC50 (concentration exhibiting 50% enzyme inhibition), Table 53
reportedMetric: pIC50
Remember the convention: pIC50 equals -log10 of concentration in molar.

Below are worked cases with known answers.
* CS(=O)(=O)CC(=O)Nc1c2c(nn1-c1ccc(C#N)cn1)C[C@]1(CCc3cc(C4CC4)ccc31)NC2=O | 8.84
* Cc1ccc(-n2nc3c(c2C(=O)NCC2(O)CC2)C(=O)N[C@@]2(CCOc4cc(OCC(F)(F)F)ccc42)C3)nc1 | 7.85
* Cn1c2c(c(NC(=O)CS(C)(=O)=O)c1-c1ccccc1)C(=O)N[C@@]1(CCc3cc(OCC(F)(F)F)ccc31)C2 | 7.78

Notebook: `CS(=O)(=O)CC(=O)Nc1c2c(nn1CCCOC(F)F)C[C@]1(CCc3cc(CCC(F)(F)F)ccc31)NC2=O` , pIC50 read as 8.98

Notebook: `Cc1ccc(-n2nc3c(c2NC(=O)CC(N)=O)C(=O)N[C@@]2(CCOc4cc(OCC(F)(F)F)ccc42)C3)nc1` , pIC50 read as 7.93

Notebook: `Cc1ccc(-n2nc3c(c2C(=O)NCC(N)=O)C(=O)N[C@@]2(CCOc4cc(OCC(F)(F)F)ccc42)C3)nc1` , pIC50 read as 7.19

Notebook: `CS(=O)(=O)CC(=O)Nc1c2c(nn1CCCOC(F)(F)F)C[C@@]1(CCc3cc(OCC(F)(F)C(F)(F)F)ccc31)NC2=O` , pIC50 read as 9.00

Notebook: `N#Cc1ccc(-n2nc3c(c2NC(=O)C2CS(=O)(=O)C2)C(=O)N[C@@]2(CCc4cc(OCC(F)(F)F)ccc42)C3)nc1` , pIC50 read as 8.43

Notebook: `CS(=O)(=O)CC(=O)Nc1c2c(nn1CCC1CC1)C[C@@]1(CCc3cc(N4CC(Oc5ccccc5)C4)ccc31)NC2=O` , pIC50 read as 8.52

Notebook: `O=C1N[C@@]2(CCc3cc(OCC(F)(F)F)ccc32)Cc2nn(CCCOC(F)F)c(C(=O)NCC3(O)CC3)c21` , pIC50 read as 7.26

Notebook: `N#Cc1ccc(-n2nc3c(c2C(=O)NCCSC(F)(F)F)C(=O)N[C@@]2(CCc4cc(OCC(F)(F)F)ccc42)C3)nc1` , pIC50 read as 7.55

Notebook: `Cc1ccc(-n2nc3c(c2C(=O)NCC2(CO)CC2)C(=O)N[C@@]2(CCOc4cc(OCC(F)(F)F)ccc42)C3)nc1` , pIC50 read as 7.87

Notebook: `CS(=O)(=O)CC(=O)Nc1c2c(nn1-c1ccc(OC(F)F)cc1)C[C@]1(CCc3cc(OCC(F)(F)F)ccc31)NC2=O` , pIC50 read as 7.89

Notebook: `Cc1ccc(-n2nc3c(c2C(=O)NCCS(N)(=O)=O)C(=O)N[C@@]2(CCc4cc(OCC(F)(F)F)ccc42)C3)nc1` , pIC50 read as 8.02
